Below, each entry is listed alongside its reported log P.
Test: log P
Format: physicochemical
Experimental conditions: Table 2
Lab note: record just the number, no unit beside it.

# Mol smiles, log P
data = [
    ("CO[C@H](C(=NOCCNC(=O)c1c(-c2ccc(Cl)cc2)c2cc(Cl)ccc2n1C)[C@@H](O)[C@@H](C)O)[C@@H]1Cc2cc3cc(O[C@H]4C[C@@H](O[C@H]5C[C@@H](O)[C@H](O)[C@@H](C)O5)[C@H](O)[C@@H](C)O4)c(C)c(O)c3c(O)c2C(=O)[C@H]1O[C@H]1C[C@@H](O[C@H]2C[C@@H](O[C@H]3C[C@](C)(O)[C@H](O)[C@@H](C)O3)[C@@H](O)[C@@H](C)O2)[C@H](O)[C@@H](C)O1", 4.6),
]

Here's the next entry for you.
Report log P, nothing else, for this compound: "CO[C@H](C(=NOC[C@@H](Cc1c[nH]c2ccccc12)NC(=O)c1ccc2scnc2c1)[C@@H](O)[C@@H](C)O)[C@@H]1Cc2cc3cc(O[C@H]4C[C@@H](O[C@H]5C[C@@H](O)[C@H](O)[C@@H](C)O5)[C@H](O)[C@@H](C)O4)c(C)c(O)c3c(O)c2C(=O)[C@H]1O[C@H]1C[C@@H](O[C@H]2C[C@@H](O[C@H]3C[C@](C)(O)[C@H](O)[C@@H](C)O3)[C@@H](O)[C@@H](C)O2)[C@H](O)[C@@H](C)O1"
3.26
